Where do these numbers come from? They come from patent US20250084096A1.

Target: BRD4 (Homo sapiens (Human))
Assay: BRD4 degradation assay in PC3-Steap1 cells
Type: cell-based
Conditions: 4 hours, immunofluorescence, read-out: Degradation of BRD4 Average EC50
Would you kindly list DC50 for each of these compounds?

Example results:
- COC(=O)c1cc2c(cc1CS(C)(=O)=O)-c1cn(C)c(=O)c3[nH]cc(c13)CN2c1ncc(C#CCN)cc1F [Compound 15]: > 20 µM
- Cc1sc2c(c1C)C(c1ccc(C#CC(C)N)cc1)=N[C@@H](CC(=O)OC(C)(C)C)c1nnc(C)n1-2 (stereo partly drawn) [Compound 11a]: > 20 µM
- CNCC#Cc1ccc(C2=N[C@@H](CC(=O)OC(C)(C)C)c3nnc(C)n3-c3sc(C)c(C)c32)cc1 [Compound 2a]: > 20 µM
- Cc1sc2c(c1C)C(c1ccc(C#CCO)cc1)=N[C@@H](CC(=O)OC(C)(C)C)c1nnc(C)n1-2 [Compound 7a]: > 20 µM
- CC(=O)NCC#Cc1ccc(C2=N[C@@H](CC(=O)OC(C)(C)C)c3nnc(C)n3-c3sc(C)c(C)c32)cc1 [Compound 10a]: > 20 µM

DC50 measured on Cc1sc2c(c1C)C(c1ccc(C#CCN(C)C)cc1)=N[C@@H](CC(=O)OC(C)(C)C)c1nnc(C)n1-2 [Compound 3a] = > 20 µM
